Data provenance: PubChem BioAssay AID2060511

# Test system: 422866-222-R5-J1-PDC spheroids with HUVEC/MSC, viability
# Assay Info: Anticancer human tumor 422866-222-R5-J1-PDC patient-derived pancreatic adenocarcinoma cell line growth inhibition [GQUAD]
# Test Context: second compound 0.0316 µM; first compound 0.316 µM; stronger effect = lower value
# Description: DNA G-quadruplex Stabilizer Agents in Combinations in Complex Spheroids A high-throughput screen of multi-cell type tumor spheroids was designed to identify active combinations of DNA G-quadruplex stabilizer agents and targeted small molecules. […] Compounds. […] If the clinical Cmax for an agent had not been determined, the highest concentration tested was 10 microM. […]
# note: exactly 70% is not below, so it is n; use y for viability, T/C strictly under it

INSERT INTO assay_data (molecule, discrete_label) VALUES
  ('CC1COCCN1c1cc(C2(O)CC3CCC(C2)O3)c2cnn(-c3ccn[nH]3)c2n1 (stereo unspecified) + Cc1[nH]c2ccc(F)cc2c1-c1nc2c3cccnc3c3ncccc3c2[nH]1', 'y'),
  ('C=CC(=O)N1CCN(c2nc(=O)n(-c3c(C)ccnc3C(C)C)c3nc(-c4c(O)cccc4F)c(F)cc23)C(C)C1 (stereo unspecified) + CN(C)c1ccc(Nc2c3ccc(NC(=O)CCN4CCCC4)cc3nc3cc(NC(=O)CCN4CCCC4)ccc23)cc1', 'y'),
  ('CC(C)(O)C1CCC(Nc2ccc3ncc(-c4cccc(C(F)(F)F)c4)n3n2)CC1 (stereo unspecified) + Cc1cnc(CNC(=O)c2c(=O)c3ccc(N4CCCN(C)CC4)nc3n3c2sc2ccccc23)cn1', 'n'),
  ('CC[C@@]1(O)C(=O)OCc2c1cc1n(c2=O)Cc2cc3c(CN(C)C)c(O)ccc3nc2-1 + Cc1cnc(CNC(=O)c2c(=O)c3ccc(N4CCCN(C)CC4)nc3n3c2sc2ccccc23)cn1', 'y'),
  ('COc1cc(C2c3cc4c(cc3C(OC3OC5COC(C)OC5C(O)C3O)C3COC(=O)C23)OCO4)cc(OC)c1O (stereo unspecified) + CN(C)c1ccc(Nc2c3ccc(NC(=O)CCN4CCCC4)cc3nc3cc(NC(=O)CCN4CCCC4)ccc23)cc1', 'n'),
  ('C=CCn1c(=O)c2cnc(Nc3ccc(N4CCN(C)CC4)cc3)nc2n1-c1cccc(C(C)(C)O)n1 + CN(C)c1ccc(Nc2c3ccc(NC(=O)CCN4CCCC4)cc3nc3cc(NC(=O)CCN4CCCC4)ccc23)cc1', 'y'),
  ('Cc1cccc(N(C)C(=O)C2C(O)CCN2c2nc(C)cc(C(F)(F)F)c2C#N)c1 (stereo unspecified) + Cc1[nH]c2ccc(F)cc2c1-c1nc2c3cccnc3c3ncccc3c2[nH]1', 'n'),
  ('COc1cccc2c1C(=O)c1c(O)c3c(c(O)c1C2=O)CC(O)(C(=O)CO)CC3OC1CC(N)C(O)C(C)O1 (stereo unspecified) + Cc1[nH]c2ccc(F)cc2c1-c1nc2c3cccnc3c3ncccc3c2[nH]1', 'y'),
  ('CCc1c2c(nc3ccc(O)cc13)-c1cc3c(c(=O)n1C2)COC(=O)[C@]3(O)CC + Cc1[nH]c2ccc(F)cc2c1-c1nc2c3cccnc3c3ncccc3c2[nH]1', 'y'),
  ('COc1ncnc(C2CC2)c1-c1ncc2cnn(Cc3ccc(-c4nc(C(F)(F)F)cn4C(C)C)cc3)c2n1 + Cc1cnc(CNC(=O)c2c(=O)c3ccc(N4CCCN(C)CC4)nc3n3c2sc2ccccc23)cn1', 'n');

----------
# Tested on: 422866-222-R5-J1-PDC spheroids with HUVEC/MSC, viability
# Assay Info: Anticancer human tumor 422866-222-R5-J1-PDC cell line growth inhibition [GQUAD];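 also: spheroids exposed to compounds for seven days before reading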
# Test Context: curve of first compound; second compound 0.316 µM
Observed Property: IC50

INSERT INTO measurements (molecule, result) VALUES
  ('CC(C)(O)C1CCC(Nc2ccc3ncc(-c4cccc(C(F)(F)F)c4)n3n2)CC1 (stereo not drawn) + CN(C)c1ccc(Nc2c3ccc(NC(=O)CCN4CCCC4)cc3nc3cc(NC(=O)CCN4CCCC4)ccc23)cc1', '1710 nM'),
  ('C=CCn1c(=O)c2cnc(Nc3ccc(N4CCN(C)CC4)cc3)nc2n1-c1cccc(C(C)(C)O)n1 + CN(C)c1ccc(Nc2c3ccc(NC(=O)CCN4CCCC4)cc3nc3cc(NC(=O)CCN4CCCC4)ccc23)cc1', '489 nM'),
  ('CC1COCCN1c1cc(-c2ccnn2C)c2ccnc(-c3ccn[nH]3)c2n1 (stereo not drawn) + Cc1[nH]c2ccc(F)cc2c1-c1nc2c3cccnc3c3ncccc3c2[nH]1', '> 10000 nM');

----------
List of viability, T/C values.
# Test system: 422866-222-R5-J1-PDC spheroids with HUVEC/MSC, viability
# Assay Info: Anticancer human tumor 422866-222-R5-J1-PDC cell line growth inhibition [GQUAD];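 also: spheroids exposed to compounds for seven days before reading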;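 as to viability, T/C: percent viability relative to DMSO vehicle control taken as 100%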
# Test Context: second compound 0.1 µM; first compound 0.00999 µM; stronger effect = lower value
Observed Property: viability, T/C (%)

INSERT INTO results (molecule, assay_target, observed_property, measured_number) VALUES
  ('Cc1[nH]c2ccccc2c1CCNCc1ccc(/C=C/C(=O)NO)cc1 + Cc1cnc(CNC(=O)c2c(=O)c3ccc(N4CCCN(C)CC4)nc3n3c2sc2ccccc23)cn1', '422866-222-R5-J1-PDC spheroids with HUVEC/MSC, viability', 'viability, T/C', 83.4),
  ('Cn1ncnc1[C@H]1c2n[nH]c(=O)c3cc(F)cc(c23)N[C@@H]1c1ccc(F)cc1 + CN(C)c1ccc(Nc2c3ccc(NC(=O)CCN4CCCC4)cc3nc3cc(NC(=O)CCN4CCCC4)ccc23)cc1', '422866-222-R5-J1-PDC spheroids with HUVEC/MSC, viability', 'viability, T/C', 88),
  ('CC[C@@]1(O)C(=O)OCc2c1cc1n(c2=O)Cc2cc3c(CN(C)C)c(O)ccc3nc2-1 + CN(C)c1ccc(Nc2c3ccc(NC(=O)CCN4CCCC4)cc3nc3cc(NC(=O)CCN4CCCC4)ccc23)cc1', '422866-222-R5-J1-PDC spheroids with HUVEC/MSC, viability', 'viability, T/C', 98),
  ('CCc1c2c(nc3ccc(O)cc13)-c1cc3c(c(=O)n1C2)COC(=O)[C@]3(O)CC + Cc1cnc(CNC(=O)c2c(=O)c3ccc(N4CCCN(C)CC4)nc3n3c2sc2ccccc23)cn1', '422866-222-R5-J1-PDC spheroids with HUVEC/MSC, viability', 'viability, T/C', 50.4),
  ('CCc1c2c(nc3ccc(O)cc13)-c1cc3c(c(=O)n1C2)COC(=O)[C@]3(O)CC + CN(C)c1ccc(Nc2c3ccc(NC(=O)CCN4CCCC4)cc3nc3cc(NC(=O)CCN4CCCC4)ccc23)cc1', '422866-222-R5-J1-PDC spheroids with HUVEC/MSC, viability', 'viability, T/C', 46.7),
  ('Cc1[nH]c2ccccc2c1CCNCc1ccc(/C=C/C(=O)NO)cc1 + CN(C)c1ccc(Nc2c3ccc(NC(=O)CCN4CCCC4)cc3nc3cc(NC(=O)CCN4CCCC4)ccc23)cc1', '422866-222-R5-J1-PDC spheroids with HUVEC/MSC, viability', 'viability, T/C', 119),
  ('CCc1c2c(nc3ccc(O)cc13)-c1cc3c(c(=O)n1C2)COC(=O)[C@]3(O)CC + Cc1[nH]c2ccc(F)cc2c1-c1nc2c3cccnc3c3ncccc3c2[nH]1', '422866-222-R5-J1-PDC spheroids with HUVEC/MSC, viability', 'viability, T/C', 38),
  ('Cn1ncnc1[C@H]1c2n[nH]c(=O)c3cc(F)cc(c23)N[C@@H]1c1ccc(F)cc1 + Cc1cnc(CNC(=O)c2c(=O)c3ccc(N4CCCN(C)CC4)nc3n3c2sc2ccccc23)cn1', '422866-222-R5-J1-PDC spheroids with HUVEC/MSC, viability', 'viability, T/C', 81.1),
  ('CC[C@@]1(O)C(=O)OCc2c1cc1n(c2=O)Cc2cc3c(CN(C)C)c(O)ccc3nc2-1 + Cc1cnc(CNC(=O)c2c(=O)c3ccc(N4CCCN(C)CC4)nc3n3c2sc2ccccc23)cn1', '422866-222-R5-J1-PDC spheroids with HUVEC/MSC, viability', 'viability, T/C', 82.8),
  ('CC[C@@]1(O)C(=O)OCc2c1cc1n(c2=O)Cc2cc3c(CN(C)C)c(O)ccc3nc2-1 + Cc1[nH]c2ccc(F)cc2c1-c1nc2c3cccnc3c3ncccc3c2[nH]1', '422866-222-R5-J1-PDC spheroids with HUVEC/MSC, viability', 'viability, T/C', 86.2),
  ('Cn1ncnc1[C@H]1c2n[nH]c(=O)c3cc(F)cc(c23)N[C@@H]1c1ccc(F)cc1 + Cc1[nH]c2ccc(F)cc2c1-c1nc2c3cccnc3c3ncccc3c2[nH]1', '422866-222-R5-J1-PDC spheroids with HUVEC/MSC, viability', 'viability, T/C', 102),
  ('Cc1[nH]c2ccccc2c1CCNCc1ccc(/C=C/C(=O)NO)cc1 + Cc1[nH]c2ccc(F)cc2c1-c1nc2c3cccnc3c3ncccc3c2[nH]1', '422866-222-R5-J1-PDC spheroids with HUVEC/MSC, viability', 'viability, T/C', 102);
